Method Summary: in vivo
Condition Context: dog, po, 13 mg/kg
Description: Cmax in dog at 13 mg/kg, po
Result Type: Cmax (µM)
Report only the number, with the unit µM understood.

QUERY: Reported Cmax, compound CN(C(=O)Cc1ccc(-n2cnnn2)cc1)C1CCN(Cc2ccc(C(F)(F)F)cc2)CC1 : ____
RESULT: 6.4

* * *

Method Summary: in vitro
Condition Context: human, Caco-2
Result Type: Papp A→B at 10 µM (×10⁻⁶ cm/s)
Report only the number, with the unit ×10⁻⁶ cm/s understood.

QUERY: Reported Papp A→B at 10 µM, compound CN(C(=O)Cc1ccc(-n2cnnn2)cc1)C1CCN(Cc2ccc(C(F)(F)F)cc2)CC1 : ____
RESULT: 57

* * *

Method Summary: in vivo
Condition Context: mouse, plasma, iv, 2 mg/kg
Result Type: clearance (L/h/kg)
Report only the number, with the unit L/h/kg understood.

QUERY: Reported clearance, compound CN(C(=O)Cc1ccc(-n2cnnn2)cc1)C1CCN(Cc2ccc(C(F)(F)F)cc2)CC1 : ____
RESULT: 0.72

* * *

Method Summary: in vivo
Condition Context: rat, iv, 2 mg/kg
Description: Volume of distribution at steady state in rat at 2 mg/kg, iv and 5 mg/kg, po
Result Type: Vd (L/kg)
Report only the number, with the unit L/kg understood.

QUERY: Reported Vd, compound CN(C(=O)Cc1ccc(-n2cnnn2)cc1)C1CCN(Cc2ccc(C(F)(F)F)cc2)CC1 : ____
RESULT: 1.4

* * *

Method Summary: in vitro
Condition Context: rat, plasma
Description: Fraction unbound in rat plasma
Result Type: fraction unbound

QUERY: Reported fraction unbound, compound CN(C(=O)Cc1ccc(-n2cnnn2)cc1)C1CCN(Cc2ccc(C(F)(F)F)cc2)CC1 : ____
RESULT: 0.081

* * *

Method Summary: in vivo
Condition Context: rat, po, 5 mg/kg
Description: Half life in rat at 5 mg/kg, po
Result Type: half-life (h)
Report only the number, with the unit h understood.

QUERY: Reported half-life, compound CN(C(=O)Cc1ccc(-n2cnnn2)cc1)C1CCN(Cc2ccc(C(F)(F)F)cc2)CC1 : ____
RESULT: 2.8

* * *

Method Summary: in vivo
Condition Context: mouse, po, 5 mg/kg
Description: Half life in mouse at 5 mg/kg, po
Result Type: half-life (h)
Report only the number, with the unit h understood.

QUERY: Reported half-life, compound CN(C(=O)Cc1ccc(-n2cnnn2)cc1)C1CCN(Cc2ccc(C(F)(F)F)cc2)CC1 : ____
RESULT: 2.4

* * *

Method Summary: physchem
Condition Context: octanol/water
Description: Lipophilicity, log D of the compound
Result Type: logD
Just the number.

Use these answered entries as a reference point.
CN(C(=O)Cc1ccc(-n2cnnn2)cc1)[C@H]1CCN(Cc2ccc(C(F)(F)F)cc2)C[C@H]1F: 3.3
CO[C@@H]1CN(Cc2ccc(C(F)(F)F)cc2)CC[C@@H]1N(C)C(=O)Cc1ccc(-n2cnnn2)cc1: 3.1
CN(C(=O)Cc1ccc(-n2cnnn2)cc1)C1CCN(Cc2ccc(C(F)(F)F)cc2)CC1: 3
CN(C(=O)Cc1ccc(-n2cnnn2)cc1)[C@@H]1CCN(Cc2ccc(C(F)(F)F)cc2)C[C@@H]1F: 3.3
Cc1nc(-c2ccc(CN3CCC(N(C)C(=O)Cc4ccc(-n5cnnn5)cc4)CC3)cc2)no1: 2.1

Attention now turns to another entry.
QUERY: Reported logD, molecule CO[C@H]1CN(Cc2ccc(C(F)(F)F)cc2)CC[C@H]1N(C)C(=O)Cc1ccc(-n2cnnn2)cc1 : ____
RESULT: 3

* * *

Method Summary: physchem
Description: Solubility of the compound
Result Type: solubility (µM)
Report only the number, with the unit µM understood.

QUERY: Reported solubility, compound CN(C(=O)Cc1ccc(-n2cnnn2)cc1)C1CCN(Cc2ccc(C(F)(F)F)cc2)CC1 : ____
RESULT: 18

* * *

Method Summary: in vivo
Condition Context: mouse, po, 5 mg/kg
Description: Cmax in mouse at 5 mg/kg, po
Result Type: Cmax

QUERY: Reported Cmax, compound CN(C(=O)Cc1ccc(-n2cnnn2)cc1)C1CCN(Cc2ccc(C(F)(F)F)cc2)CC1 : ____
RESULT: 2200 nM

* * *

Method Summary: in vivo
Condition Context: rat, po, 5 mg/kg
Description: Oral bioavailability in rat at 5 mg/kg
Result Type: bioavailability (%)
Report only the number, with the unit % understood.

QUERY: Reported bioavailability, compound CN(C(=O)Cc1ccc(-n2cnnn2)cc1)C1CCN(Cc2ccc(C(F)(F)F)cc2)CC1 : ____
RESULT: 66

* * *

Method Summary: in vitro
Condition Context: dog, MDCK
Description: Apparent permeability across apical to basolateral side in dog MDCK cells at 10 uM
Result Type: Papp A→B at 10 µM (×10⁻⁶ cm/s)
Report only the number, with the unit ×10⁻⁶ cm/s understood.

QUERY: Reported Papp A→B at 10 µM, molecule CN(C(=O)Cc1ccc(-n2cnnn2)cc1)C1CCN(Cc2ccc(C(F)(F)F)cc2)CC1 : ____
RESULT: 17

* * *

Method Summary: in vivo
Condition Context: mouse, po, 5 mg/kg
Description: Oral bioavailability in mouse at 5 mg/kg
Result Type: bioavailability (%)
Report only the number, with the unit % understood.

QUERY: Reported bioavailability, molecule CN(C(=O)Cc1ccc(-n2cnnn2)cc1)C1CCN(Cc2ccc(C(F)(F)F)cc2)CC1 : ____
RESULT: 64

* * *

Method Summary: in vivo
Condition Context: rat, plasma, iv, 2 mg/kg
Result Type: clearance

QUERY: Reported clearance, compound CN(C(=O)Cc1ccc(-n2cnnn2)cc1)C1CCN(Cc2ccc(C(F)(F)F)cc2)CC1 : ____
RESULT: 6.8 mL/min/kg

* * *

Method Summary: in vivo
Condition Context: dog, iv, 2 mg/kg
Description: Volume of distribution at steady state in dog at 2 mg/kg, iv and 13 mg/kg, po
Result Type: Vd

QUERY: Reported Vd, compound CN(C(=O)Cc1ccc(-n2cnnn2)cc1)C1CCN(Cc2ccc(C(F)(F)F)cc2)CC1 : ____
RESULT: 2.3 L/kg

* * *

Method Summary: in vivo
Condition Context: dog, po, 13 mg/kg
Description: Oral bioavailability in dog at 13 mg/kg
Result Type: bioavailability
Numeric answer plus unit only.

QUERY: Reported bioavailability, compound CN(C(=O)Cc1ccc(-n2cnnn2)cc1)C1CCN(Cc2ccc(C(F)(F)F)cc2)CC1 : ____
RESULT: 35%

* * *

Method Summary: in vivo
Condition Context: dog, po, 13 mg/kg
Description: Half life in dog at 13 mg/kg, po
Result Type: half-life

QUERY: Reported half-life, molecule CN(C(=O)Cc1ccc(-n2cnnn2)cc1)C1CCN(Cc2ccc(C(F)(F)F)cc2)CC1 : ____
RESULT: 18 h

* * *

Method Summary: in vivo
Condition Context: dog, iv, 2 mg/kg
Description: Half life in dog at 2 mg/kg, iv
Result Type: half-life (h)
Report only the number, with the unit h understood.

QUERY: Reported half-life, molecule CN(C(=O)Cc1ccc(-n2cnnn2)cc1)C1CCN(Cc2ccc(C(F)(F)F)cc2)CC1 : ____
RESULT: 20

* * *

Method Summary: in vivo
Condition Context: mouse, iv, 2 mg/kg
Description: Half life in mouse at 2 mg/kg, iv
Result Type: half-life (min)
Report only the number, with the unit min understood.

QUERY: Reported half-life, compound CN(C(=O)Cc1ccc(-n2cnnn2)cc1)C1CCN(Cc2ccc(C(F)(F)F)cc2)CC1 : ____
RESULT: 132
